measurement-target: kinase domain of RIPK1 (Homo sapiens, UniProt Q13546)
Construct: The kinase domain of RIPK1; made in house
Sequence (Q13546 17-289 limits assumed): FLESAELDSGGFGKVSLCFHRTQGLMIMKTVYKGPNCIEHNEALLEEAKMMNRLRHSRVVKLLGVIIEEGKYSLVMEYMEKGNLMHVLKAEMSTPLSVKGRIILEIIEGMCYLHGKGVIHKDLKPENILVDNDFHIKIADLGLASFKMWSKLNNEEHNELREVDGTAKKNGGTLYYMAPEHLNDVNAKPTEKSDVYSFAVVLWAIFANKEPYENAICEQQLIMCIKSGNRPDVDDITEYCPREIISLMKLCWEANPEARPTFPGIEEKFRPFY
protocol-description: Differential scanning fluorimetry (thermal shift), RIPK1 kinase domain
Type: binding
recorded-conditions: 10 μM compound, 1 μM protein, average of triplicates
Mark t for ΔTm at 10 µM under 0.3 °C, f if at or over.

1) COc1nccnc1NS(=O)(=O)c1ccc(NC(=O)/C=C/c2ccc([N+](=O)[O-])s2)cc1 [NSA, Necrosulfonamide, reference compound] = t
2) C[C@@H](Oc1cc(-c2cnn(C3CCNCC3)c2)cnc1N)c1c(Cl)ccc(F)c1Cl [Crizontinib, reference compound] = f
3) Nc1nccnc1C(=O)O[C@@H](C(=O)Nc1ccc(F)cc1)c1ccccc1 [cpd 4] = t
4) CC(=O)Nc1ccc(N(C)c2ccnc(Nc3cccc(S(N)(=O)=O)c3)n2)cc1 [cpd 2] = t
5) CN(c1ccc(N)cc1)c1ccnc(Nc2cccc(S(N)(=O)=O)c2)n1 [cpd 3] = f
